Recorded phage ELISA signal ratio by entry
target entity: WDR5 20-334 WD40 (domain begin residue: 20, domain end residue: 334), P61964
test: phage ELISA signal ratio (GST-PRM binding over GST background); higher = stronger binding of peptide-phage to the PRM
Keep it simple and answer with nothing but the number.

Please review the following examples before continuing.
* VPSLVMPQDQPVMVSR | 12.8
* QQVFQDHSNHQMMISR | 14
* QRTMAWKSENHLMPHS | 16.4
* AARTQWYLAAVAEQAP | 12.9
* GRWVPWDQNVTTSDES | 23.4

Shift focus to the following entry.
Noted for `GRWVPVQDVPRFEIED` : its phage ELISA signal ratio reads 19

From: the supplement of paper PMC7724964
